Target: TD4, minimal TACC domain (TD) fragment of XTACC3 (Xenopus)
Experiment: SPR; TD4 (50 μg/ml) amine-coupled to a CM5 chip, peptides pCt or pCt_KD as analytes 10–250 μM; BIAcore X100, 20 °C, HBS (100 mM HEPES, 150 mM NaCl, 0.05% P20, pH 7.4); steady-state fit, single-site model
endpoint-label: Kd (µM)

binder="STNIDDLKKRLERIKS [pCt, synthetic peptide of XMAP-Ct residues 46-61]" endpoint_unit=µM numeric_readout=30
